studySystem: T1, soluble human FcRn (shFcRn) (human, UniProt P55899 24-297; P61769 21-119, biotinylated with Sulfo-NHS-LC-Biotin in the ELISA; amine-coupled to a CM5 chip in SPR)
T1 construct: also called biotinylated shFcRn
testDescription: competition ELISA vs human IgG
pIC50: −log10 of the molar value. Positions of bridges follow the written chain, without caps; N, C: chain ends. Non-standard residues stand in square brackets, D forms with d. No end group written: not given here. Pen = CC(C)(S)[C@H](N)C(=O)O; NMeA = CN[C@@H](C)C(=O)O
attributeMeasured: pIC50

{"binder": "QRF[Pen][NMeA]GHFGGLYPCNGP-NH2 (disulfide 4-14; N-terminus assumed; SMILES CC(C)C[C@@H]1NC(=O)CNC(=O)CNC(=O)[C@H](Cc2ccccc2)NC(=O)[C@H](Cc2c[nH]cn2)NC(=O)CNC(=O)[C@H](C)N(C)C(=O)[C@@H](NC(=O)[C@H](Cc2ccccc2)NC(=O)[C@H](CCCNC(=N)N)NC(=O)[C@@H](N)CCC(N)=O)C(C)(C)SSC[C@@H](C(=O)N[C@@H](CC(N)=O)C(=O)NCC(=O)N2CCC[C@H]2C(N)=O)NC(=O)[C@@H]2CCCN2C(=O)[C@H](Cc2ccc(O)cc2)NC1=O) [Peptide No. 213]", "measValue": 5.26}

1 = QRFXTGHFXGLYPCNGP (Pen4; D-Ile9; disulfide; C-terminal amide) [Peptide No. 51]
2 = QRFXTGHFGXLYPCNGP (Pen4; D-Ile10; disulfide; C-terminal amide) [Peptide No. 43]
3 = QRFXTGHFGXLYPXNGP (Pen4; D-Pro10; Pen14; disulfide; C-terminal amide) [Peptide No. 295]
4 = QRFCTGHFGGLYPXNGP (D-Cys14; disulfide; C-terminal amide) [Peptide No. 30]
Arrange these binders by their pIC50, starting with the largest number. Dear reader, please state the labels in the requested order.
3, 1, 2, 4
(3: 5.80, 1: 5.03, 2: 4.74, 4: 3.90)
